Quick list: pIC50 per entry.
Biological target: 5-hydroxytryptamine receptor 1A (Mus musculus, UniProt Q64264)
Sequence (Q64264 whole entry): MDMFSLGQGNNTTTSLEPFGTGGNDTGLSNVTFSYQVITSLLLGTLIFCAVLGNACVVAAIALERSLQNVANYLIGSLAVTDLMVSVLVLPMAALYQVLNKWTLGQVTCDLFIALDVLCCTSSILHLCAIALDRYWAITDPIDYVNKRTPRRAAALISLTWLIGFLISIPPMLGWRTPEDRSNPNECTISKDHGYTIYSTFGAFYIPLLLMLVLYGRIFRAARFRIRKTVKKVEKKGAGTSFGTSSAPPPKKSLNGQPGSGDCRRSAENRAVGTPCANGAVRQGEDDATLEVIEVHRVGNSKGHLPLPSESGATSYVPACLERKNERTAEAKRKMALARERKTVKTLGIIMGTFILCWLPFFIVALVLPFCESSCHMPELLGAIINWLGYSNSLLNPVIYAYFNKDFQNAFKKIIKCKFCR
pIC50: −log10 of the molar value.
testReadout: pIC50

compound: C1=CC2CCC1C(c1c[nH]c3ccccc13)C2N1CCCC1 (stereo in doubt; 12b)
testReadout: pIC50
measuredResult: 4.33
--
compound: C1=CC2CCC1C(c1c[nH]c3ccccc13)C2N1CCCC1 (stereo in doubt; 12a)
testReadout: pIC50
measuredResult: 4.92
--
compound: C1=CC2CCC1C(c1c[nH]c3ccccc13)C2N1CCCCC1 (stereo in doubt; 13b)
testReadout: pIC50
measuredResult: 4.05
--
compound: O=C1CC2CCC1C(N1CCCC1)C2c1c[nH]c2ccccc12 (stereo in doubt; 9b)
testReadout: pIC50
measuredResult: 4.28
--
compound: O=C1CC2CCC1C(N1CCCCC1)C2c1c[nH]c2ccccc12 (stereo in doubt; 10a)
testReadout: pIC50
measuredResult: 4.07
--
compound: O=C1CC2CCC1C(N1CCCCC1)C2c1ccccc1 (configuration not stated)
testReadout: pIC50
measuredResult: 3.45
--
compound: O=C1CC2CCC1C(N1CCCC1)C2c1c[nH]c2ccccc12 (stereo in doubt; 9a)
testReadout: pIC50
measuredResult: 4.34

---

Target: Serotonin 2 (5-HT2) receptor (Mus musculus, UniProt Q02152+P34968+P35363)
Assay: Inhibitory activity towards 5-hydroxytryptamine 2 receptor by the displacement of [3H]ketanserin in mouse cerebral cortex
Format: tissue-based
Quick list: IC50 per entry.
testReadout: IC50 (µM)

molecule: O=C1CC2CCC1C(N1CCCCC1)C2c1ccccc1 (centres undefined)
outputUnit: µM
measuredResult: 181

molecule: O=C1CC2CCC1C(N1CCCCC1)C2c1c[nH]c2ccccc12 (stereo in doubt; 10a)
outputUnit: µM
measuredResult: 5

molecule: O=C1CC2CCC1C(N1CCCCC1)C2c1c[nH]c2ccccc12 (stereo in doubt; 10b)
outputUnit: µM
measuredResult: 84

molecule: O=C1CC2CCC1C(N1CCCC1)C2c1c[nH]c2ccccc12 (stereo in doubt; 9b)
outputUnit: µM
measuredResult: 96

molecule: C1=CC2CCC1C(c1c[nH]c3ccccc13)C2N1CCCCC1 (stereo in doubt; 13a)
outputUnit: µM
measuredResult: 10

molecule: C1=CC2CCC1C(c1c[nH]c3ccccc13)C2N1CCCC1 (stereo in doubt; 12b)
outputUnit: µM
measuredResult: 24

molecule: O=C1CC2CCC1C(N1CCCC1)C2c1c[nH]c2ccccc12 (stereo in doubt; 9a)
outputUnit: µM
measuredResult: 32

molecule: C1=CC2CCC1C(c1c[nH]c3ccccc13)C2N1CCCCC1 (stereo in doubt; 13b)
outputUnit: µM
measuredResult: 13

molecule: C1=CC2CCC1C(c1c[nH]c3ccccc13)C2N1CCCC1 (stereo in doubt; 12a)
outputUnit: µM
measuredResult: 19

---

Molecular target: 5-hydroxytryptamine receptor 1A (Mus musculus)
Sequence (Q64264 whole entry): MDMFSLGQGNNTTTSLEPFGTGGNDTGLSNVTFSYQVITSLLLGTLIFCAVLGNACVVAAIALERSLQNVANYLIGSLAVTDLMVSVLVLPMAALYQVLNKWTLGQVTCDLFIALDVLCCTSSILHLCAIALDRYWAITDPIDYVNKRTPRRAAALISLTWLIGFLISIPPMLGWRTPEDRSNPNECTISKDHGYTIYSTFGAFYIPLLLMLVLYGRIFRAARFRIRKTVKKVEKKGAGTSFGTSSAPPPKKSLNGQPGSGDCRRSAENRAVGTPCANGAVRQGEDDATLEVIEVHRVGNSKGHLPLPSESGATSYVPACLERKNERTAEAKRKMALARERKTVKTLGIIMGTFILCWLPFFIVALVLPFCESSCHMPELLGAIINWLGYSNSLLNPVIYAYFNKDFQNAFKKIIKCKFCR
pKi: −log10 of the molar value.
Quick list: pKi per entry.

compound: C1=CC2CCC1C(c1c[nH]c3ccccc13)C2N1CCCCC1 (stereo in doubt; 13a)
pKi: 4.87

compound: C1=CC2CCC1C(c1c[nH]c3ccccc13)C2N1CCCC1 (stereo in doubt; 12a)
pKi: 5.07

compound: O=C1CC2CCC1C(N1CCCC1)C2c1c[nH]c2ccccc12 (stereo in doubt; 9a)
pKi: 4.49

compound: O=C1CC2CCC1C(N1CCCCC1)C2c1c[nH]c2ccccc12 (stereo in doubt; 10b)
pKi: 3.94

---

Quick list: Hill coefficient per entry.
Target: 5-hydroxytryptamine receptor 1A (Mus musculus)
Assay: Hill number was determined for inhibition of [3H]8-OH-DPAT binding to 5-hydroxytryptamine 1A receptor in mouse hippocampus
Format: tissue-based

molecule: O=C1CC2CCC1C(N1CCCCC1)C2c1ccccc1 (stereo not drawn)
Hill coefficient: 0.89
//
molecule: C1=CC2CCC1C(c1c[nH]c3ccccc13)C2N1CCCC1 (stereo in doubt; 12a)
Hill coefficient: 0.95
//
molecule: C1=CC2CCC1C(c1c[nH]c3ccccc13)C2N1CCCCC1 (stereo in doubt; 13a)
Hill coefficient: 0.93
//
molecule: C1=CC2CCC1C(c1c[nH]c3ccccc13)C2N1CCCC1 (stereo in doubt; 12b)
Hill coefficient: 0.61
//
molecule: O=C1CC2CCC1C(N1CCCCC1)C2c1c[nH]c2ccccc12 (stereo in doubt; 10b)
Hill coefficient: 0.88
//
molecule: O=C1CC2CCC1C(N1CCCCC1)C2c1c[nH]c2ccccc12 (stereo in doubt; 10a)
Hill coefficient: 1.2
//
molecule: O=C1CC2CCC1C(N1CCCC1)C2c1c[nH]c2ccccc12 (stereo in doubt; 9b)
Hill coefficient: 0.47
//
molecule: C1=CC2CCC1C(c1c[nH]c3ccccc13)C2N1CCCCC1 (stereo in doubt; 13b)
Hill coefficient: 0.69

---

Quick list: log10 of Ki per entry.
Target: Serotonin 2 (5-HT2) receptor (Mus musculus, UniProt Q02152+P34968+P35363)
Experiment: Binding affinity towards 5-hydroxytryptamine 2 receptor by the displacement of [3H]-ketanserin in mouse cerebral cortex
Assay type: tissue-based
testReadout: log10 of Ki (log10 of the value in µM)

compound: C1=CC2CCC1C(c1c[nH]c3ccccc13)C2N1CCCCC1 (stereo in doubt; 13b)
log10 of Ki: 0.95

compound: O=C1CC2CCC1C(N1CCCC1)C2c1c[nH]c2ccccc12 (stereo in doubt; 9b)
log10 of Ki: 1.85

compound: C1=CC2CCC1C(c1c[nH]c3ccccc13)C2N1CCCCC1 (stereo in doubt; 13a)
log10 of Ki: 0.90

compound: O=C1CC2CCC1C(N1CCCCC1)C2c1c[nH]c2ccccc12 (stereo in doubt; 10a)
log10 of Ki: 0.60

compound: O=C1CC2CCC1C(N1CCCCC1)C2c1ccccc1 (centres undefined)
log10 of Ki: 2.12

compound: C1=CC2CCC1C(c1c[nH]c3ccccc13)C2N1CCCC1 (stereo in doubt; 12a)
log10 of Ki: 1.15

compound: O=C1CC2CCC1C(N1CCCC1)C2c1c[nH]c2ccccc12 (stereo in doubt; 9a)
log10 of Ki: 1.36

compound: O=C1CC2CCC1C(N1CCCCC1)C2c1c[nH]c2ccccc12 (stereo in doubt; 10b)
log10 of Ki: 1.79

compound: C1=CC2CCC1C(c1c[nH]c3ccccc13)C2N1CCCC1 (stereo in doubt; 12b)
log10 of Ki: 1.23
